- Target Entity: Beta-secretase (BACE) (Homo sapiens, UniProt Q9Y5Z0+P56817)
- Experimental Protocol: Inhibition of BACE1/BACE2 (unknown origin) transfected in CHO cells assessed as release of amyloid beta (1 to 40) after 24 hrs by immunoassay
- Type: cell-based
Measurement Name: IC50 (nM)
Write it as a number; the unit nM goes unstated.

GET /values?readout=IC50&item= "C[C@]1(c2nc(NC(=O)c3ncc(Cl)cc3Cl)ccc2F)N=C(N)OCC1(F)F" 12

# IC50 lookup, item "C[C@]1(c2nc(NC(=O)c3ccc(C#N)cn3)ccc2F)N=C(N)OCC1(F)F" 7

Need IC50, item "C[C@]1(c2nc(NC(=O)c3ncc(OCC(F)F)nc3N)ccc2F)N=C(N)OCC1(F)F" 440

Given the entry "C[C@]1(c2nc(NC(=O)c3ncc(C#N)cc3Cl)ccc2F)N=C(N)OCC1(F)F" , report its measured IC50. 8

Using the record for "C[C@]1(c2nc(NC(=O)c3nn(C(F)F)cc3Cl)ccc2F)N=C(N)OCC1(F)F" , report its IC50. 13
